Ref: PubChem BioAssay (NCI)

- Test system: SF-268 CNS
- assay.details: NCI-60 one-dose screen, 48 h
- protocol.conditions: 10 µM unless noted
Compounds without any hit were thinned out: in the full panel of roughly 83,000, 20% have a hit. Active and inactive are the calls of the source. Rule for the calls: active = growth percent below 10; inactive = the rest.
Output constraint: value belongs to label 1 = active, label 0 = inactive

Could you kindly confirm the outcome this assay logged for Cc1cc(C)c([O-])c(CN(C)CCN(C)Cc2cc(C)cc(C)c2[O-])c1.O=C([O-])c1cccc(C(=O)[O-])n1.[Ti+4] ?
label 0

Could you kindly confirm the outcome this assay logged for CC1=C(C(=O)Nc2ccc(F)cc2)C(c2ccccc2)C2=C(CC(C)(C)CC2=O)N1 (stereo not given) ?
label 0

Could you kindly confirm the outcome this assay logged for CNCc1cccc2c1OCCOCCOCCC(C)S(=O)(=O)c1ccc(cc1)-c1cnc(N)c(n1)C(=O)N2 (stereo not given) ?
label 0

Could you kindly confirm the outcome this assay logged for Cc1cccc(C(=O)O)n1 ?
label 0

Could you kindly confirm the outcome this assay logged for CCOC(=O)C(=CNc1ccccc1Cl)C(=O)OCC ?
label 0

Could you kindly confirm the outcome this assay logged for C[C@]12CCc3nc(Nc4ccc(O)cc4)sc3C1=CC[C@@H]1[C@@H]2CC[C@]2(C)/C(=N/NC(N)=S)CC[C@@H]12 ?
label 1

Could you kindly confirm the outcome this assay logged for O=C1CC2(O)CSc3nc(=O)cc(n32)N1 (stereo not given) ?
label 0

Could you kindly confirm the outcome this assay logged for Nc1nonc1-c1nc2ccccc2n1Cc1ccc(F)cc1 ?
label 0

Could you kindly confirm the outcome this assay logged for CCNC(=S)N(Cc1ccccc1)Cc1ccccc1 ?
label 0

Could you kindly confirm the outcome this assay logged for CCOC(=O)C1=C(C)NC(SCc2nnc(-c3ccc(Cl)cc3)o2)=NC1c1ccc(Br)cc1 (stereo not given) ?
label 0

---

- Tested on: NCI-H226 lung
- assay.details: NCI-60 one-dose screen, 48 h
- protocol.conditions: 10 µM unless noted
About 83,000 compounds went through this panel and 20% of them were active in at least one assay; those are over-represented in the sample as a whole. The source made the active and inactive calls. How the source made its calls: active means growth percent below 10; inactive means the rest.
Output constraint: value belongs to YES = active, NO = inactive

Could you kindly confirm the outcome this assay logged for CN1CCN(Cc2ccc(NC(=O)c3cncc(C#Cc4ncc5cnccn45)c3)cc2C(F)(F)F)CC1 ?
YES

Could you kindly confirm the outcome this assay logged for Nc1ccc(C(OC(=O)c2cc3ccccc3c(Cc3c(O)c(C(=O)OC(c4ccc(N)cc4)(c4ccc(N)cc4)c4ccc(N)cc4)cc4ccccc34)c2O)(c2ccc(N)cc2)c2ccc(N)cc2)cc1 ?
NO

Could you kindly confirm the outcome this assay logged for COc1ccc(/C=C2\Cc3c(Br)cccc3C2=O)c(OC)c1 ?
NO

Could you kindly confirm the outcome this assay logged for C/C=C(\C)C(C(=O)NC1CCCCC1)N(C(=O)C1CCc2cc(F)ccc2O1)c1ccc([N+](=O)[O-])cc1 (centres undefined) ?
NO

Could you kindly confirm the outcome this assay logged for CC(=O)Nc1ccc(Cl)cc1Cl ?
NO

Could you kindly confirm the outcome this assay logged for Fc1cnccc1-c1nc2ccc3[nH]ncc3c2c2c1CCCC2 ?
NO

Could you kindly confirm the outcome this assay logged for CC(C)CC(NC(=O)C(CCCN=C(N)N)NC(=O)OCc1ccccc1)C(=O)NC(CNC(=O)/C=C/c1ccccc1)C(C)C (centres undefined) ?
NO

Could you kindly confirm the outcome this assay logged for O=C1Nc2ccccc2/C1=C/c1c[nH]c2ccccc12 ?
NO

Could you kindly confirm the outcome this assay logged for NC(=Nc1ccccc1)SCCCSC(N)=Nc1ccccc1 ?
NO
